measured on: human α1D‐adrenoceptor (full length) (Homo sapiens)
Construct: human α1D‐adrenoceptor (full length) were used; expressed in transfected cells; host or cells: CHO-K1
assay procedure: Intracellular free calcium mobilization, CHO‐α1D cells
Assay type: cell-based
condition context: CHO‐α1D cells; intrinsic efficacy ratio, binding KD / calcium EC50
Rule: criterion met for Log efficacy ratio KD /EC50 not less than 2, criterion not met for anything less.

Record excerpt, results attached:
> print(dat)
                                   compound     discrete.label
1  C[C@H](N)[C@H](O)c1cccc(O)c1 [Metaraminol]  criterion not met
2  CCNCC(O)c1cccc(O)c1 (stereo not drawn) [Etilefrine]  criterion not met
3  COc1ccc(OC)c(C(O)C(C)N)c1 (stereo not drawn) [Methoxamine]  criterion not met
4  CC(CCc1ccc(O)cc1)NCCc1ccc(O)c(O)c1 (stereo not drawn) [Dobutamine]      criterion met
5  NCC(O)c1ccc(O)cc1 (stereo not drawn) [Octopamine]      criterion met

Please examine the following record next.
Say whether c1ccc(C2CC2)c(OCC2=NCCN2)c1 [Cirazoline] shows Log efficacy ratio KD /EC50 of 2 or more.
criterion not met

###

Items are presented alongside their recorded ERK1/2‐phosphorylation % PDBu at 100 µM.
measured on: human α1D‐adrenoceptor (full length) (Homo sapiens, UniProt P25100)
Construct: human α1D‐adrenoceptor (full length) were used; expressed in transfected cells; host or cells: CHO-K1
Sequence (P25100 whole entry): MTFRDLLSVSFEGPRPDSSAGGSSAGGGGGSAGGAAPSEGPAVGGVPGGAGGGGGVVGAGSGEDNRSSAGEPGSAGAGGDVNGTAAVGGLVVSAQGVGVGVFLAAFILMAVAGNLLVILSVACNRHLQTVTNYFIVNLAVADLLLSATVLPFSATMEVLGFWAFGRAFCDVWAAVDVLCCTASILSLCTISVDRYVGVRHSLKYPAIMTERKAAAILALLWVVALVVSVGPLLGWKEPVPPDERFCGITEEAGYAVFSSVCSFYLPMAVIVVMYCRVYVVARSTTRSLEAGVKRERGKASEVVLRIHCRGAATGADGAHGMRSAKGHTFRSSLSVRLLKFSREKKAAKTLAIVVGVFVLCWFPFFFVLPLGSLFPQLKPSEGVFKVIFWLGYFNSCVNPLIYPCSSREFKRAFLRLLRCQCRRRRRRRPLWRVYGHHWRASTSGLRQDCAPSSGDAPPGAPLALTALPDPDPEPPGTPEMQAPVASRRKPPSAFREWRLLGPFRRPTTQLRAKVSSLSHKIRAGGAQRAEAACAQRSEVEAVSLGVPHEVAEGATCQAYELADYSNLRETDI
assay procedure: ERK1/2‐phosphorylation (Surefire Alphascreen), CHO‐α1D cells
Type: cell-based
condition context: CHO‐α1D cells; response at 100 µM ligand (no EC50 given)
Note: unit % is implicit; provide only the numeric part.

Answered cases to consult:
> print(dat)
                                   compound                        quantity.measured  readout.unit  reading
1  CC1c2ccccc2CN1CC1=NCCN1 (centres unmarked)  ERK1/2‐phosphorylation % PDBu at 100 µM             %     47.4
2  CC(C)(C)NCC(O)c1ccc(O)c(CO)c1 (centres unmarked)  ERK1/2‐phosphorylation % PDBu at 100 µM             %      4.0
3  CS(=O)(=O)Nc1c(O)ccc2c1CCCC2C1=NCCN1 (centres unmarked)  ERK1/2‐phosphorylation % PDBu at 100 µM             %     11.7

ERK1/2‐phosphorylation % PDBu at 100 µM for c1ccc2c(c1)OCC(C1=NCCN1)O2 (centres unmarked) ?
2.2

What ERK1/2‐phosphorylation % PDBu at 100 µM value was documented for this compound, `COc1ccccc1N1CCN(CCN2C(=O)CC3(CCCC3)CC2=O)CC1` ?
3.0

###

measured on: human α1D‐adrenoceptor (full length) (Homo sapiens, UniProt P25100)
Construct: human α1D‐adrenoceptor (full length) were used; expressed in transfected cells; host or cells: CHO-K1
assay procedure: ^3H‐cAMP accumulation in the presence of 10 μM forskolin, CHO‐α1D cells
Type: cell-based
quantity measured: pIC50
Here pIC50 is given on a logarithmic scale as minus log10 of the concentration in mol/L.

Please give the measured pIC50 for this compound: `Cc1cc(C(C)(C)C)cc(C)c1CC1=NCCN1`
7.53

###

measured on: human α1A‐adrenoceptor (Homo sapiens, UniProt P35348)
Construct: expressed in transfected cells; host or cells: CHO-K1
Sequence (P35348 1-466): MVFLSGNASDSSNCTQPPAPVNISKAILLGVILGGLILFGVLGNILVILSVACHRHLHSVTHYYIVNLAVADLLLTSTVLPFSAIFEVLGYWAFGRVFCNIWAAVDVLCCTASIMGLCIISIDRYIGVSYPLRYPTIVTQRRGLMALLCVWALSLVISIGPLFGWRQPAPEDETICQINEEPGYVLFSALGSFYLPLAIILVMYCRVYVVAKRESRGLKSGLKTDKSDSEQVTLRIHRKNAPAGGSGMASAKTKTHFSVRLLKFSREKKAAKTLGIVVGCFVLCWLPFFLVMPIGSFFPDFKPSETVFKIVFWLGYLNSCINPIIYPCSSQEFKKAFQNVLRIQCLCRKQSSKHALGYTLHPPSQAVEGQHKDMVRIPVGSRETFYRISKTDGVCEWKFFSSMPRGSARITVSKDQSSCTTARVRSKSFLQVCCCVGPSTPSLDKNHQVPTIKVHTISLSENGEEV
assay procedure: ^3H‐cAMP accumulation, CHO‐α1A cells
Format: cell-based
condition context: CHO‐α1A cells; % of 10 µM forskolin response
Everything with cAMP accumulation % forskolin lower than 50% is False; everything else, including exactly 50%, is True.

> print(dat)
                                   compound  discrete.label
1  Cc1cccc(C(C)c2cnc[nH]2)c1C (stereo not drawn)           False
2               N=C(N)NC(=O)Cc1c(Cl)cccc1Cl           False
3                   CCc1cccc(CC)c1NC1=NCCN1            True
4  CC(CCc1ccccc1)NCC(O)c1ccc(O)c(C(N)=O)c1 (stereo not drawn)           False
5  CC(C)NCC(O)c1ccc(O)c(O)c1 (stereo not drawn)           False

In plain terms: is recorded cAMP accumulation % forskolin at least 50% for `CCC1(c2cnc[nH]2)Cc2ccccc2C1` ?
False

###

measured on: human α1D‐adrenoceptor (full length) (Homo sapiens)
Construct: human α1D‐adrenoceptor (full length) were used; expressed in transfected cells; host or cells: CHO-K1
assay procedure: ^3H‐prazosin whole‐cell radioligand binding, CHO‐α1D cells
condition context: CHO‐α1D cells, whole‐cell binding (from Table 1); log values given negative
quantity measured: 3H‐prazosin binding Log KD
Please give only the number in your answer, with no unit.

> print(dat)
                             compound  reading
1  COCc1c(Cl)ccc2c1CC[C@H]2c1ncc[nH]1    −5.24
2             CCc1cccc(CC)c1NC1=NCCN1    −5.24

# get_value(readout='3H‐prazosin binding Log KD', item= CC1c2ccccc2CN1CC1=NCCN1 (centres unmarked) )
−5.06

Entry `Cc1sc(C)c2c1CCC=C2c1cnc[nH]1.O=C(O)/C=C\C(=O)O` : reported 3H‐prazosin binding Log KD = ?
−5.91

Fill blank: measured 3H‐prazosin binding Log KD of the compound `C=CCN1CCc2nc(N)sc2CC1` is ____.
−4.49

Would you kindly share the measured 3H‐prazosin binding Log KD for `C1=C(c2cnc[nH]2)c2ccsc2CC1` ?
−4.30

I am curious: what 3H‐prazosin binding Log KD value has been reported for `CCN1CCc2nc(N)oc2CC1` ?
−3.70

Name the recorded 3H‐prazosin binding Log KD for CS(=O)(=O)Nc1c(O)ccc2c1CCCC2C1=NCCN1 (centres unmarked) .
−3.92

###

Overview of reported cAMP accumulation Log EC50 across a group of compounds:
measured on: human α1A‐adrenoceptor (Homo sapiens)
Construct: expressed in transfected cells; host or cells: CHO-K1
Sequence (P35348 1-466): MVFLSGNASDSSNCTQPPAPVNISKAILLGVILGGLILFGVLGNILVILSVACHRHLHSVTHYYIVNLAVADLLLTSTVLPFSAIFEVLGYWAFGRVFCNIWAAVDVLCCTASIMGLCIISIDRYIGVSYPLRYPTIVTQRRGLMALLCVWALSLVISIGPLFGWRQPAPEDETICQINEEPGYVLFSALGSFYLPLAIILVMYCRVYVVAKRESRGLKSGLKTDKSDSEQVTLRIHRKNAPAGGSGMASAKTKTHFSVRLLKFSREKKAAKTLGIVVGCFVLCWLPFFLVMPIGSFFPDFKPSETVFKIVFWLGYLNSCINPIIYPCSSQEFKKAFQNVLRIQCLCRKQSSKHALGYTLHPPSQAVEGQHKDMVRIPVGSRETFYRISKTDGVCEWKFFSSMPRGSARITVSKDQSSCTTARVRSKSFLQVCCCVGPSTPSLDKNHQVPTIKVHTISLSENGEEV
assay procedure: ^3H‐cAMP accumulation, CHO‐α1A cells
Assay type: cell-based
condition context: CHO‐α1A cells; 5 h
Reply with just the number.

compound	cAMP accumulation Log EC50
CCC1(C2=NCCN2)Cc2ccccc2O1 (stereo not drawn)	−5.47
COc1ccccc1N1CCN(CCN2C(=O)c3ccccc3C(C)(C)C2=O)CC1	−8.41
CCc1cccc(CC)c1NC1=NCCN1	−6.80

Shifting focus to the compound that follows.
Given the entry CC1c2ccccc2CN1CC1=NCCN1 (stereo not drawn) , what cAMP accumulation Log EC50 was observed with human α1A‐adrenoceptor (Homo sapiens)?
−6.27

###

Item-by-item account of Log efficacy ratio KD /EC50
measured on: human α1A‐adrenoceptor (Homo sapiens)
Construct: expressed in transfected cells; host or cells: CHO-K1
Sequence (P35348 1-466): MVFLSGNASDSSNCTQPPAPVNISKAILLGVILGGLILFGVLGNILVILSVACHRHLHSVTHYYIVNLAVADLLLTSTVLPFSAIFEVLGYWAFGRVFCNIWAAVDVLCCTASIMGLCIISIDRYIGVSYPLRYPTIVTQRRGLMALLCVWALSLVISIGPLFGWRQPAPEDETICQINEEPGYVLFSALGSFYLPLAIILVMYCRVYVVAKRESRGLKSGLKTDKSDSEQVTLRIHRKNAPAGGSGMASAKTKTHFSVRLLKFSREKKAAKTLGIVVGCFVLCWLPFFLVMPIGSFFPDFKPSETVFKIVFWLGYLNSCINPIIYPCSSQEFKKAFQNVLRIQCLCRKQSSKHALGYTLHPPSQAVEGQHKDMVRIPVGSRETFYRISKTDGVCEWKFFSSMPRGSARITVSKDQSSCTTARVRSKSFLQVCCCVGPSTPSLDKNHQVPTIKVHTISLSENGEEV
assay procedure: Intracellular free calcium mobilization, CHO‐α1A cells
Type: cell-based
Returns: the value as a bare number; no unit string appended.

Missing value: Log efficacy ratio KD /EC50, human α1A‐adrenoceptor (Homo sapiens), entry CCC1(C2=NCCN2)Cc2ccccc2O1 (centres unmarked) [Eforaxan] . Fill in?
1.36

API: value(readout= Log efficacy ratio KD /EC50, system= human α1A‐adrenoceptor (Homo sapiens), query= CC(N)C(O)c1ccc(O)c(O)c1 (stereo not drawn) [α‐Methylnorepinephrine] )
3.37

Lab note: need Log efficacy ratio KD /EC50 with human α1A‐adrenoceptor (Homo sapiens) for entry Cc1cccc(C)c1N=C1NCCCS1 [Xylazine] , please look it up.
1.44

Provide the documented Log efficacy ratio KD /EC50 with human α1A‐adrenoceptor (Homo sapiens) as the system for Brc1c(NC2=NCCN2)ccc2nccnc12 [Brimonidine]
1.57

Which Log efficacy ratio KD /EC50 is reported with human α1A‐adrenoceptor (Homo sapiens) for this entry: Cc1cc(C(C)(C)C)cc(C)c1CC1=NCCN1 [Xylometazoline] ?
1.66

Requested read-out Log efficacy ratio KD /EC50, target or system human α1A‐adrenoceptor (Homo sapiens), entry CN[C@@H](C)[C@H](O)c1ccccc1 [Ephedrine]
1.43

API: value(readout= Log efficacy ratio KD /EC50, system= human α1A‐adrenoceptor (Homo sapiens), query= C=CCc1ccccc1OC(C)C1=NCCN1 (centres unmarked) [Allyphenyline] )
1.74

// lookup Log efficacy ratio KD /EC50 | system=human α1A‐adrenoceptor (Homo sapiens) | key= Cc1cccc([C@H](C)c2cnc[nH]2)c1C [Dexmedetomidine]
1.91

Entry CC(C)(C)NCC(O)COc1cccc2[nH]c(=O)[nH]c12 (centres unmarked) [CGP 12177] , system human α1A‐adrenoceptor (Homo sapiens): what Log efficacy ratio KD /EC50 was measured?
1.04

I'm curious: which Log efficacy ratio KD /EC50 was measured for O=C1CCC(=O)N1C[C@H]1CC[C@H]2CN(c3ncccn3)CCN2C1 [Sunepitrion] tested on human α1A‐adrenoceptor (Homo sapiens)?
0.39

Give recorded Log efficacy ratio KD /EC50 with human α1A‐adrenoceptor (Homo sapiens) for the following molecule: Cc1cccc(C(C)c2cnc[nH]2)c1C (centres unmarked) [Medetomidine]
2.06
